- assay-text: NCI Yeast Anticancer Drug Screen. Data for the rad50 strain (AID 155);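 note: 0% = growth of vehicle-only cultures of the same strain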
- particulars: S. cerevisiae rad50 strain growth inhibition; at 50.0 µM; stronger effect = higher value
This is part of a sample that, as a whole, favours compounds with a hit. Of some 79,000 tested, about 15% had one in any assay. Where a SMILES comes first, the peptide text is derived from it. [ ]: non-standard residue; d: D form. The star is where a group is joined. Cbz = O=C(OCc1ccccc1)*; Nva = CCC[CH](N)C(=O)O
Property: growth inhibition; scope: individual compounds
property: growth inhibition (%)

• Clc1nc(N2CCOCC2)c2[nH]cnc2n1 = -5.9
• COC1OC(COS(=O)(=O)c2ccc(C)cc2)C2OC(C)(C)OC2C1OS(=O)(=O)c1ccc(C)cc1 (centres undefined) = 54.9
• CCO[Si](C)(CCC#N)OCC = 6.05
• C[N+](C)(CCS(=O)(=O)[O-])C1CCCCC1 = -6.65
• COc1ccc(NC(=O)CC(=O)N/N=C(/C)c2cc3cc(N=Nc4ccccc4Cl)ccc3oc2=O)cc1 = 11.3
• CC(CC(=O)O)(CC(=O)O)c1ccccc1 = 19.6
• CC[O-].CC[O-].O=C([CH-]C(=O)c1ccccc1)CCCCCCC(=O)[CH-]C(=O)c1ccccc1.[Ti+4] = -39.5
• CCCCCCCCCCCl = 13.2
• CCC(O)C(CC)CC (centres undefined) = 13.8
• CCCC(NC(=O)OCc1ccccc1)C(=O)NC(CCSC)C(N)=O (centres undefined) (Cbz-[Nva]-Met-NH2; configuration not given here) = 28.2
• CC(=O)OC/C=C1/CC[C@H]2[C@@H]3CCC4=CC(=O)[C@H](C)C[C@]4(C)[C@H]3[C@@H](O)C[C@]12C = -1.85
• CCOC(C)=C(C#N)C#N = 8.9
• C/C(C=C(C#N)C#N)=C\c1cccc(F)c1 = 55.7
• C[N+](C)(N)c1nc(N)c(C#N)c(C#N)c1C#N = 13.6
• CC1(C)C/C(=C/c2ccccc2)C(=O)O1 = -14.6
• COc1cc(CC(=O)O)c(Br)cc1C = 5.95
• COc1cccc2c1C(=O)OC2c1cccc2ccccc12 (centres undefined) = 10.5
• CC(=O)OC1CC(c2ccccc2)=NO1 (centres undefined) = -12.8
• CCOc1nc(=O)n(CC(=O)c2ccc(Cl)s2)cc1F = 4.55
• CC(=O)Nc1c(Cl)c(Cl)c2c(c1Cl)Cc1cc([N+](=O)[O-])ccc1-2 = 9.2
• COC(=O)c1cccc(C(=O)CC(=O)c2ccccc2)c1 = 18.6
• Cc1cc2c3ccccc3n(C)c2c2c1C(=O)c1ccccc1C2=O = 15.8
• COc1c(C)c(C)c(OC)c(CC(=O)O)c1C = -3.05
• CCc1nnc(CC)n1NC(=O)Nc1ccc(C)cc1 = -5.1

* * *

- assay-text: NCI Yeast Anticancer Drug Screen. Data for the cln2 rad14 strain (AID 165);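 note: 0% = growth equal to vehicle treated cultures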
- particulars: S. cerevisiae cln2 rad14 strain, at 50.0 µM, stronger effect = higher value
Compounds without any hit were thinned out: in the full panel of roughly 79,000, 15% have a hit.
property: growth inhibition (%)

* CC(C)(C)C(C(N)=O)C(C)(C)C | 14.4
* Nc1nc(N)c(Nc2ccc(Cl)cc2)c(Cl)n1 | 35.2
* CN(C)Cc1ccc(-c2cc3onc(-c4ccccc4)c3c(=O)n2C)cc1 | -8.4
* CC12CC3CC(C1)CC(NCCO)(C3)C2 | -83.7
* O=[N+]([O-])c1ccc(S(=O)(=O)N/N=C/c2cccc3ccccc23)cc1 | -15.8
* CSCCNC(=O)CS(=O)(=O)c1ccc(N)cc1 | -13.2
* NCCNCCCCCCCCCCCCOS(=O)(=O)O | -15.3
* Cc1cc(N(CCC#N)CCC#N)ccc1/C=C1N=C(/C=C\c2ccccc2)OC\1=O | 12.2
* CCOC(=O)C1=[N+]([O-])OC2=C(O)CCCC21 (configuration not stated) | -8.85
* CCCCOCCOC(=O)CCCCCC1C=CCCC1 (configuration not stated) | -18.6
* Nc1nc(N)nc(-c2cc(Br)c(N)c(Br)c2)n1 | 34.6
* COc1cc(C(=O)O)cc(O)c1OC | -6.25
